Procedure Details: Metabolic stability in human liver microsomes assessed as compound remaining after 30 mins
Assay type: ADME, Microsome
Test Conditions: read-out: Stability
Measurement Type: remaining at 0.5 h (%)

Cc1cn(Cc2ccc(Cl)cc2Cl)c2c(-c3nnc(NS(=O)(=O)c4ccc(Cl)c(Cl)c4)o3)cc(F)cc12 ... 72.1
Cc1cn(Cc2ccc(Cl)cc2Cl)c2c(-c3cc(NS(=O)(=O)c4ccc(F)c(F)c4)no3)cc(F)cc12 ... 46.8
Cc1cn(Cc2ccc(Cl)cc2Cl)c2c(-c3cc(NS(=O)(=O)c4cc(Cl)c(Cl)s4)no3)cc(F)cc12 ... 46.8
Cc1cn(Cc2ccc(Cl)cc2Cl)c2c(-c3nnc(NS(=O)(=O)c4cc(Cl)c(Cl)s4)o3)cc(F)cc12 ... 62.7
